- Test system: SN12C renal
- assay comment: NCI-60 one-dose screen, 48 h
- condition details: 10 µM
About 83,000 compounds went through this panel and 20% of them were active in at least one assay; those are over-represented in the sample as a whole. The source made the active and inactive calls. The calls were made as follows: active = growth percent below 10; inactive = the rest.
Output constraint: value belongs to Yes for active, No for inactive

Known results for compounds:
O=[N+]([O-])C1CC2C=CC1C2 (stereo not drawn): No
C[C@@H]1N=C(c2ccc(Br)cc2)Nc2nc3ccccn3c2C1=O: No
Cc1ccc2nc3[nH]c(=O)[nH]c(=O)c3c(N)c2c1: No
COc1ccc(N2CCN(c3nc(-c4ccccc4)c(C#N)c(=O)[nH]3)CC2)cc1: No
CS(=O)(=O)Nc1ccc(Nc2c3ccccc3nc3cc(Cl)ccc23)cc1: No
N=C(N)c1ccc(-c2ccc(-c3cccs3)s2)nc1: No

Tell me the assay call for Cn1c([N+](=O)[O-])cnc1/C=C1\Oc2ccc(Br)cc2C1=O please.
Yes

Tell me the assay call for COc1cccc2c1C(=O)c1c(O)c3c(c(O)c1C2=O)C[C@@](O)(C(=O)COC(=O)c1ccccc1)C[C@@H]3OC1CC(N)C(O)C(C)O1 (stereo partly drawn) please.
Yes

Tell me the assay call for CCSc1nc2c([nH]1)c(=O)n(C)c(=S)n2C please.
No

Tell me the assay call for COc1ccc(-c2cc(/C=C/C(=O)c3ccc(N)cc3)[nH]n2)cc1OC please.
No

Tell me the assay call for O=C(COc1ccc(Cl)cc1Cl)Oc1coc(CSc2nc3ccccc3s2)cc1=O please.
No

Tell me the assay call for COc1ccc(C2C=C(c3ccc(Cl)cc3)N=C3SC=CN32)c(Br)c1 (stereo not drawn) please.
No

Tell me the assay call for Cc1ccc(S(=O)(=O)Nc2cccc3[nH]c(C(F)(F)F)nc23)cc1 please.
No

Tell me the assay call for COc1ccc2nc(/C=C/c3ccc(N(C)C)cc3)sc2c1 please.
No

Tell me the assay call for O=c1oc2cc(OS(=O)(=O)C3CC3)ccc2c2c1CCCCCC2 please.
No

Tell me the assay call for O=C(O)c1cc(C(F)(F)F)cc(C(F)(F)F)c1 please.
No

Tell me the assay call for COc1cc(-c2cc(/C=C/C(C)=O)[nH]n2)cc(OC)c1OC please.
No

---

- System: SK-OV-3 ovarian
- assay comment: NCI-60 one-dose screen, 48 h
- condition details: 10 µM
About 83,000 compounds went through this panel and 20% of them were active in at least one assay; those are over-represented in the sample as a whole. Calls of active or inactive are those of the source. How the source made its calls: active means growth percent below 10; inactive means the rest.
Output constraint: value belongs to 1 for active, -1 for inactive

CCCCOCCOCCOCc1cc2c(cc1Br)OCO2: -1
COc1ccc(S(=O)(=O)Nc2cc(/C=C\c3cc(OC)c(OC)c(OC)c3)ccc2OC)cc1: -1

Tell me the assay call for C=C1C(=O)O[C@H]2[C@H]1CC/C(COC(=O)OCCCCCOC(=O)OC/C1=C/CC[C@@]3(C)O[C@H]3[C@H]3OC(=O)C(=C)[C@@H]3CC1)=C\CC[C@@]1(C)O[C@@H]21 please.
-1

Tell me the assay call for Cc1ccc(-c2cc(-c3cccc(Nc4ccnc5cc(Cl)ccc45)c3)nc3nc(N)[nH]c(=O)c23)cc1 please.
-1

Tell me the assay call for CC1=CSC2=NC(c3ccc(Cl)c(Cl)c3)=CC(c3ccc(Cl)cc3)N12 (stereo not given) please.
1

Tell me the assay call for COc1ccc(-c2nc3sc(-c4ccccc4)c(-c4ccccc4)n3c2/C=C/c2ccc(F)cc2)cc1 please.
-1

Tell me the assay call for COc1ccc(/C=C2\CCC3C(CCCC34OCCO4)C2=O)cc1 (stereo not given) please.
-1

Tell me the assay call for O=[N+]([O-])c1ccc2c(c1)Cc1cc(I)ccc1-2 please.
-1

Tell me the assay call for c1ccc(COCC[P+](c2ccccc2)(c2ccccc2)c2ccccc2)cc1 please.
1

Tell me the assay call for O=C(CSc1nnc(-c2ccc(Cl)cc2)o1)c1ccccc1 please.
-1

Tell me the assay call for COc1cc(C2c3cc4c(cc3C(O)C(CO)C2CO)OCO4)cc(OC)c1OC (stereo not given) please.
-1

Tell me the assay call for COc1cc(-c2n/c(=C\c3c(O)[nH]c4ccccc34)cc3c2=Nc2ccccc2-3)cc(OC)c1OC please.
1

Tell me the assay call for CCOc1nc(-c2ccccc2)cc2c(O)c(C(=O)NCCCO)[nH]c(=O)c12 please.
-1

Where do these numbers come from? They come from PubChem BioAssay (NCI).
